Below: a set of entries, each annotated with reported Mean Papp B − A (10^−6 cm/s).
- Test system: Caco-2 cells
- Measurement notes: Caco-2 bidirectional permeability (absorption & efflux)
- Condition parameters: Example 47

(Q) Check Caco-2 cells data and give Mean Papp B − A (10^−6 cm/s) for CNS(=O)(=O)Nc1cccc(Cc2c(CN3CCNCC3)c3cc(F)c(OC(=O)N(C)C)cc3oc2=O)c1F .
(A) 8.08 10^−6 cm/s

---

Below: a set of entries, each annotated with reported half-life at 2 μM.
- Measurement notes: Plasma stability, cynomolgus monkey plasma (K2-EDTA)
- Format: in vitro ADME
- Condition parameters: plasma (K2EDTA), pH 7.4, anti-coagulant K2-EDTA
Structures can show the parent of a compound that is named as a salt.
Quick reminder: number only, in min, skip the unit.

CCN(C)Cc1c(Cc2cccc(NS(=O)(=O)NC)c2Cl)c(=O)oc2cc(OC(=O)N(C)C)ccc12	1380
CCS(=O)(=O)Nc1cccc(Cc2c(CN3CCNCC3)c3cc(Cl)c(OC(=O)N(C)C)cc3oc2=O)c1Cl [Compound 257, hydrochloride]	1210
CNS(=O)(=O)Nc1cccc(Cc2c(CN3CCNCC3)c3cc(Cl)c(OC(=O)N(C)C)cc3oc2=O)c1Cl [Compound 256, hydrochloride]	1710

Now turn to the next compound.
(Q) Look up and report measured half-life at 2 μM for this entry: CC(C)[N+](C)(CCOC(=O)C1c2ccccc2Oc2ccccc21)C(C)C [Propantheline, reference compound]
(A) 450

---

- Measurement notes: Plasma stability, mouse plasma (Balb/c; Table 5 head CD-1 Mouse)
- Type: in vitro ADME
- Condition parameters: mouse, pH 7.4; balb/c plasma, 2 μM, anti-coagulant K2-EDTA; read-out: T1/2
Counter-ions that a name gives are not always drawn.
Below: a set of entries, each annotated with reported half-life at 2 μM.
The reply should read as a number followed by its unit.

Recorded half-life at 2 μM, per entry:
CNS(=O)(=O)Nc1cccc(Cc2c(CN3CCNCC3)c3cc(Cl)c(OC(=O)N(C)C)cc3oc2=O)c1Cl [Compound 256, hydrochloride]	9.77 h
CNS(=O)(=O)Nc1cccc(Cc2c(CN(C)C)c3ccc(OC(=O)N(C)C)cc3oc2=O)c1Cl	126 h

Now turn to the next compound.
(Q) Look up and report measured half-life at 2 μM for this entry: CCN(C)Cc1c(Cc2cccc(NS(=O)(=O)NC)c2Cl)c(=O)oc2cc(OC(=O)N(C)C)ccc12
(A) 7.98 h

---

- Measurement notes: Hepatocyte stability, human
- Assay type: in vitro ADME
- Condition parameters: human hepatocytes, 0.5 million cells/ml, 120 min
Counter-ions that a name gives are not always drawn.
Measured metric: half-life at 2 μM (h)
Quick reminder: number only, in h, skip the unit.

CCN(C)Cc1c(Cc2cccc(NS(=O)(=O)NC)c2F)c(=O)oc2cc(OC(=O)N(C)C)c(F)cc12	1.07

(Q) Look up and report measured half-life at 2 μM for this entry: CCS(=O)(=O)Nc1cccc(Cc2c(CN3CCNCC3)c3cc(Cl)c(OC(=O)N(C)C)cc3oc2=O)c1Cl [Compound 257, hydrochloride]
(A) 12

(Q) Look up and report measured half-life at 2 μM for this entry: CNS(=O)(=O)Nc1cccc(Cc2c(CN3CCNCC3)c3cc(Cl)c(OC(=O)N(C)C)cc3oc2=O)c1Cl [Compound 256, hydrochloride]
(A) 15.4

(Q) Look up and report measured half-life at 2 μM for this entry: CNS(=O)(=O)Nc1cccc(Cc2c(CN3CCNCC3)c3ccc(OC(=O)N(C)C)cc3oc2=O)c1Cl [Compound 246, hydrochloride]
(A) 28.8

(Q) Look up and report measured half-life at 2 μM for this entry: CCN(C)Cc1c(Cc2cccc(NS(=O)(=O)NC)c2Cl)c(=O)oc2cc(OC(=O)N(C)C)ccc12
(A) 0.703

(Q) Look up and report measured half-life at 2 μM for this entry: CNS(=O)(=O)Nc1cccc(Cc2c(CN(C)C)c3ccc(OC(=O)N(C)C)cc3oc2=O)c1Cl
(A) 1.87
